Entry source: ChEMBL document CHEMBL5356940

Notes on pIC50 obtained with UniProt:Q8TBX8.

{"columns": ["record.smiles", "pIC50"],
 "data": [
  ["Cc1ncccc1-c1cc2c(Nc3ccc(S(C)(=O)=O)cc3)ncnc2s1", 7.7],
  ["COc1ccc(Nc2ncnc3sc(-c4cccnc4C)cc23)cc1", 5.7],
  ["Cc1ccc(Nc2ncnc3sc(-c4cccnc4C)cc23)c(C)c1", 5.4],
  ["CS(=O)(=O)c1ccc(Nc2ncnc3sc(-c4ccnc(Cl)c4)cc23)cc1", 7.2],
  ["Cc1ncccc1-c1cc2ncnc(Nc3ccc(C4CC4)cc3)c2s1", 7.3],
  ["COc1cnccc1-c1cc2c(Nc3ccc(S(C)(=O)=O)cc3)ncnc2s1", 7.5],
  ["CSc1ccc(Nc2ncnc3sc(-c4cccnc4Cl)cc23)cc1", 7.7],
  ["CCc1ccc(Nc2ncnc3sc(-c4cccnc4C)cc23)cc1", 6.4],
  ["CSc1ccc(Nc2ncnc3sc(-c4cccnc4C)cc23)cc1", 7.3],
  ["CS(=O)(=O)c1ccc(Nc2ncnc3sc(-c4cccnc4)cc23)cc1", 7.5],
  ["Cc1ncccc1-c1cc2ncnc(Nc3ccc(N4CCCC4=O)cc3)c2s1", 8.1],
  ["CS(=O)(=O)c1ccc(Nc2ncnc3sc(-c4ccncc4)cc23)cc1", 7.7],
  ["CS(=O)(=O)c1ccc(Nc2ncnc3cc(-c4cccnc4Cl)sc23)cc1", 7.9],
  ["CSc1ccc(Nc2ncnc3sc(-c4cnoc4)cc23)cc1", 7.4]
]}

====

target: Phosphatidylinositol 5-phosphate 4-kinase type-2 gamma (Homo sapiens, UniProt Q8TBX8)
Sequence (Q8TBX8 2-421 limits assumed, change not shown): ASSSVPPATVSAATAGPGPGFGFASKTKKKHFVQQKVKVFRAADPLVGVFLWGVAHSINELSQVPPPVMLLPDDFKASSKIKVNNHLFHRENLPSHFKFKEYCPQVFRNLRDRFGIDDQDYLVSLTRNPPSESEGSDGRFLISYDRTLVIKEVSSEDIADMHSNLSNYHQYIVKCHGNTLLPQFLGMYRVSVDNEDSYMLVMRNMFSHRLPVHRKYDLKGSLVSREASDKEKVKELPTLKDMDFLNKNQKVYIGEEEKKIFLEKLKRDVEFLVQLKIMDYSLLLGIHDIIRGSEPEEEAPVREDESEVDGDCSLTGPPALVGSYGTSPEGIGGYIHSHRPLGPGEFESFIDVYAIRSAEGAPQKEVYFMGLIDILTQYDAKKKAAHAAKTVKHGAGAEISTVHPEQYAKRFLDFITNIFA
quantity.kind: pIC50

{"columns": ["record.smiles", "quantity.kind", "endpoint.result"],
 "data": [
  ["Cc1ncccc1-c1cc2c(Nc3ccc(C4CC4)cc3)ncnc2s1", "pIC50", 7],
  ["CSc1ccc(Nc2ncnc3sc(-c4ccncc4C)cc23)cc1", "pIC50", 7.7],
  ["CS(=O)(=O)c1ccc(Nc2ncnc3sc(-c4cn[nH]c4)cc23)cc1", "pIC50", 7.8],
  ["Cc1ccc(Nc2ncnc3sc(-c4cccnc4C)cc23)cc1C", "pIC50", 5.9],
  ["Cn1cc(-c2cc3c(Nc4ccc(S(C)(=O)=O)cc4)ncnc3s2)cn1", "pIC50", 7.4],
  ["CSc1ccc(Nc2ncnc3cc(-c4cccnc4Cl)sc23)cc1", "pIC50", 8.1],
  ["Cc1ccc(Nc2ncnc3sc(-c4cccnc4C)cc23)cc1", "pIC50", 5.8],
  ["Cc1ccncc1-c1cc2c(Nc3ccc(S(C)(=O)=O)cc3)ncnc2s1", "pIC50", 7.9],
  ["Cc1ncccc1-c1cc2ncnc(Nc3ccc4ncoc4c3)c2s1", "pIC50", 6.3],
  ["CSc1ccc(Nc2ncnc3sc(-c4c(C)noc4C)cc23)cc1", "pIC50", 7.6],
  ["Cc1cccc(Nc2ncnc3sc(-c4cccnc4C)cc23)c1", "pIC50", 5.3]
]}
